Below: a set of entries, each annotated with reported IC50.
- Target system: OCT3 (Homo sapiens, UniProt O75751)
- Construct: expressed in transfected cells; host or cells: HEK293
- Sequence (O75751 whole entry): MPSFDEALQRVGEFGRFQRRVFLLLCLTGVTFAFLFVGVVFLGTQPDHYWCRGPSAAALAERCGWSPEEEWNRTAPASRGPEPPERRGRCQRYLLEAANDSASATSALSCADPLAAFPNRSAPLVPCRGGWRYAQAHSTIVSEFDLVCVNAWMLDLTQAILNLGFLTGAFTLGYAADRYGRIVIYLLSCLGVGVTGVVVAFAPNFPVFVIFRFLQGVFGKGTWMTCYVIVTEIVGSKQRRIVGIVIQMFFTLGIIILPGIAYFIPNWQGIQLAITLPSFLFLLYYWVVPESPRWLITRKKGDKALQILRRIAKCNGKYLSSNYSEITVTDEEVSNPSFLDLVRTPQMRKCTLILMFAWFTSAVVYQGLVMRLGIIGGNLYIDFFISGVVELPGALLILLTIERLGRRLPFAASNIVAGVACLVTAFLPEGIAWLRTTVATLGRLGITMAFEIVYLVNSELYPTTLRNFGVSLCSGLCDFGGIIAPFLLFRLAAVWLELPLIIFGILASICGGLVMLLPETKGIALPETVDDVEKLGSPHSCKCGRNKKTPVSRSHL
- Protocol notes: Inhibition of model substrate uptake in OCT3-overexpressing HEK293 cells
- Type: cell-based
- Assay context: OCT3; model substrate 2 μM (S,S)-ethambutol, 5 min; read-out: IC50
Attribute measured: IC50 (µM)

>>> value("Cc1ccc(O)c([C@@H](CCN(C(C)C)C(C)C)c2ccccc2)c1 [(S)-Tolterodine]")
6.37
>>> value("Cc1ccc(O)c([C@H](CCN(C(C)C)C(C)C)c2ccccc2)c1 [(R)-Tolterodine]")
0.39
